Data origin: the RNAGym collection of RNA variant scans (doi:10.7554/elife.80360)

B1: Twister Ribozyme (parent)
chain: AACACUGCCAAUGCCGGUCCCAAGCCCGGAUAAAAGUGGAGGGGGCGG

variants of: B1; assay: self-cleavage, relative activity (ratio to wild type); higher = more cleavage; co-transcriptional
outcomeMeasure: self-cleavage
Please give the numeric answer without any surrounding text.

[[record]]
inputsequence = "AACACUGCCAAUGCCGGUCCCAGGCCCGGAUAAAGGUGGAGGGGGCGG"
outcomemeasure = "self-cleavage"
resultvalue = 0.188

[[record]]
inputsequence = "AACACUGCCAAUGCCGGUCCCAAGCCCGCAUAAGAGUGGAGGGGGCGG"
outcomemeasure = "self-cleavage"
resultvalue = 0.214

[[record]]
inputsequence = "AUCACUCCCAAUGCCGGUCCCAAGCCCGGAUAAAAGUGGAGGGGGCGG"
outcomemeasure = "self-cleavage"
resultvalue = 0.0748


The recorded self-cleavage for entry `AACACUGCCAAUGCCGGUCCCAAGGCCGGAUAAAAGUGGUGGGGGCGG` equals 0.103

The recorded self-cleavage for entry `AACACUGCCAAUGGCGGUCCCAAGCCCGGAUAAACGUGGAGGGGGCGG` equals 0.244

The recorded self-cleavage for entry `AACACUGCCAAUGCCGGUACCAAGCCCGGAUAAAAGUAGAGGGGGCGG` equals 0.132

The recorded self-cleavage for entry `AACACUGCCAAUGCCGGUCCCCAGCCCGGAAAAAAGUGGAGGGGGCGG` equals 0.54

The recorded self-cleavage for entry `AACACUGCCAAUGCCGUUCGCAAGCCCGGAUAAAAGUGGAGGGGGCGG` equals 0.105

The recorded self-cleavage for entry `AACACCGCCAAUGUCGGUCCCAAGCCCGGAUAAAAGUGGAGGGGGCGG` equals 0.473

The recorded self-cleavage for entry `AACACUGCCAAUGCCGGGCCCAAGCCCGGAUAAAAGUGGAGGGGGCAG` equals 0.0493

The recorded self-cleavage for entry `AACACUGCCAAUGCCGGUCCCAGGCCCGGAUAAAAGUCGAGGGGGCGG` equals 0.289
